B1: ZER1 (parent)
chain: KEMARKVIEHCSNFKEENMDTSR

Variants of: B1
protocolNotes: protein stability index of a GFP-peptide fusion (GPS, HEK-293T) (PSI 1-6); higher = more stable;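 further: lentivirally expressed fusions sorted by FACS into six bins by GFP to DsRed ratio, PSI derived from sequencing read proportions per bin multiplied by bin number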
conditionInfo: c terminus: native
observedProperty: protein stability index

Here are 3 variants together with their reported answers.
1) K15Y ... 3.27
2) C11F ... 1.38
3) M19Y ... 3.71

Per the records, this variant ( E9P ) has protein stability index equal to 4.58

For record S12G the listed protein stability index is 4.21

Entry T21E — recorded protein stability index = 4.98

Field protein stability index (entry F14A ) reads 4.56

Please fill in: protein stability index reported for R23L = 4.86
